stated.conditions: pH 2.7
Marks after values point to notes of the source that are not given here.
readout.name: Log P

molecule: COC(=O)C(C#N)=C(NC(C)c1cccc(C(F)(F)F)c1)c1cccnc1Cl (stereo not drawn) [Compound 401]
result: 3.28^[a]
//
molecule: CCOC(=O)C(C#N)=C(NC(C)C(C)C)c1sccc1Br (stereo not drawn) [Compound 941]
result: 4.12^[a]
//
molecule: COC(=O)C(C#N)=C(NC(C)(C)c1ccccc1)c1cccnc1Cl [Compound 370]
result: 2.98^[a]
//
molecule: CCOC(=O)C(C#N)=C(NC(C)C1CC1)c1nc(Cl)ccc1Cl (stereo not drawn) [Compound 888]
result: 3.73^[a]
//
molecule: CCOC(=O)C(C#N)=C(NC(C)c1nccs1)c1ccnc(Cl)c1F (stereo not drawn) [Compound 1313]
result: 2.96^[a]
//
molecule: CCOC(=O)C(C#N)=C(NC(C)C(=O)OC)c1cn(C)nc1C(F)F (stereo not drawn) [Compound 673]
result: 2.31^[a]
//
molecule: CCOC(=O)C(C#N)=C(NC(C)COC)c1sccc1Br (stereo not drawn) [Compound 734]
result: 3.21^[a]
//
molecule: CCOC(=O)C(C#N)=C(NC(C)c1ccccn1)c1ccsc1I (racemic) [Compound 163]
result: 3.03^[a]
//
molecule: CCOC(=O)C(C#N)=C(NC(C)(C)C(C)(C)C)c1cn(C)nc1C(F)F [Compound 753]
result: 3.46^[a]

// data source = patent US8476197B2
